System: Escherichia coli ATCC 25922
Details: Table 8, second column
Where no end group is shown, it is not given here.
Measured MIC E. coli, listed per entry for reference.
Give the figure together with its unit, number first.

Solved entries (count: 3):
AAWWRR-NH2 Pmc+: hexapeptide amide having the Pmc group (also: Pmc group, position not given here) = 18.0 μM/ml
AWRWRA-NH2 Pmc+: hexapeptide amide having the Pmc group (also: Pmc group, position not given here) = 18.0 μM/ml
WWAARR-NH2 Pmc+: hexapeptide amide having the Pmc group (also: Pmc group, position not given here) = 45.0 μM/ml

Returns the measured MIC E. coli for the input substance. Input: WRAAWR-NH2 Pmc+: hexapeptide amide having the Pmc group (also: Pmc group, position not given here)
45.0 μM/ml

###

System: Escherichia coli ATCC 25922
Conditions: ATCC 25922
Where a SMILES comes first, the peptide text is derived from it. [ ]: non-standard residue; d: D form. 2Nal = N[C@@H](Cc1ccc2ccccc2c1)C(=O)O
Measured property: MBC E. coli

N=C(N)NCCC[C@H](NC(=O)[C@H](Cc1ccc(O)cc1)NC(=O)[C@H](CCCNC(=N)N)NC(=O)[C@H](Cc1ccc2ccccc2c1)NC(=O)[C@@H](N)CCCNC(=N)N)C(=O)N[C@@H](Cc1ccc2ccccc2c1)C(N)=O [Arg-(2-Nal)-Arg-Tyr-Arg-(2-Nal)NH2] (H-R[2Nal]RYR[2Nal]-NH2; N-terminus assumed) = 15 µg/mL

Observed MBC E. coli on Escherichia coli ATCC 25922 for COC(=O)[C@H](CCCNC(=N)N)NC(=O)[C@H](Cc1c[nH]c2ccccc12)NC(=O)[C@H](Cc1c[nH]c2ccccc12)NC(=O)[C@@H](N)CCCNC(=N)N [RWWR-OMe, H-L-Arg-L-Trp-L-Trp-L-Arg-OMe] (H-RWWR-OMe) , please.
>200 (>200) μg/ml

Find MBC E. coli (Escherichia coli ATCC 25922) for the entry N=C(N)NCCC[C@H](NC(=O)C1CCCCC1)C(=O)N[C@@H](Cc1c[nH]c2ccccc12)C(=O)OCc1ccccc1
200 (>200) μg/ml

Item N=C(N)NCCC[C@H](NC(=O)[C@H](CCCNC(=N)N)NC(=O)[C@H](Cc1c[nH]c2ccccc12)NC(=O)[C@H](Cc1c[nH]c2ccccc12)NC(=O)[C@H](Cc1c[nH]c2ccccc12)NC(=O)[C@@H](N)CCCNC(=N)N)C(N)=O [RWWWRR] (H-RWWWRR-NH2) with Escherichia coli ATCC 25922 - MBC E. coli?
15 µg/mL

###

Listed compounds paired with reported MIC E. coli
System: Escherichia coli ATCC 25922
Details: ATCC 25922
Where a SMILES comes first, the peptide text is derived from it. [ ]: non-standard residue; d: D form. The star is where a group is joined. Bip = N[C@@H](Cc1ccc(-c2ccccc2)cc1)C(=O)O; Tle = CC(C)(C)[C@H](N)C(=O)O; OBn = c1ccc(CO*)cc1

C[C@H](N)C(=O)N[C@@H](C)C(=O)N[C@@H](Cc1c[nH]c2ccccc12)C(=O)N[C@@H](Cc1c[nH]c2ccccc12)C(=O)N[C@@H](CCCNC(=N)N)C(=O)N[C@@H](CCCNC(=N)N)C(N)=O [AAWWRR-NH2] (H-AAWWRR-NH2; N-terminus assumed) = >200 mg/L
C[C@H](NC(=O)[C@H](C)NC(=O)[C@H](CCCNC(=N)N)NC(=O)[C@H](CCCNC(=N)N)NC(=O)[C@H](Cc1ccc(-c2ccccc2)cc1)NC(=O)[C@@H](N)Cc1c[nH]c2ccccc12)C(N)=O [WBRRAA-NH2] (H-W[Bip]RRAA-NH2; N-terminus assumed) = >300 mg/L
CC(C)(C)[C@H](N)C(=O)N[C@@H](CCCNC(=N)N)C(=O)OCc1ccccc1 [tBuGR-OBzl] (H-[Tle]-Arg-OBn; N-terminus assumed) = >300.0 mg/L
N=C(N)NCCC[C@H](NC(=O)[C@H](Cc1c[nH]c2ccccc12)NC(=O)[C@@H](N)CCCNC(=N)N)C(N)=O [RWR] (H-Arg-Trp-Arg-NH2; N-terminus assumed) = >100 mg/L

Query (compound): NCCCC[C@@H](N)C(=O)N[C@@H](Cc1c[nH]c2ccccc12)C(=O)OCc1ccccc1 [kW-OBzl] (H-[dK]-Trp-OBn) ; field requested: MIC E. coli
>300 mg/L
